System: Human immunodeficiency virus
Experiment: Antiviral activity against HIV infected in human MT4 cells assessed as suppression of viral replication
Conditions: Human immunodeficiency virus 1, MT4
Readout name: pEC50
pEC50 here is simply -log10 of the concentration when that concentration is written in mol/L.

Ask: Give reported pEC50 value for `O=C(NCc1ccc(F)cc1)c1nc(N2CCCCS2(=O)=O)c2cccnc2c1O`
Reply: 8.70

###

Molecular target: Protease (Human immunodeficiency virus 1, UniProt Q9YQ12)
Sequence (Q9YQ12 whole entry): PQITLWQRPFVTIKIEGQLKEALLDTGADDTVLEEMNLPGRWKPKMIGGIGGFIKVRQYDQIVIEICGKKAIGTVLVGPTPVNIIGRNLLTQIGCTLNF
Assay: Inhibition of HIV1 subtype B protease
Threshold-based label: IC50 under 40 µM gives fulfilled, IC50 not under 40 µM gives not fulfilled.

| Line notation | Classification |
| --- | --- |
| O=C1N/C(=N/c2cccc(O)c2)S/C1=C1\C(=O)Nc2ccccc21 | fulfilled |
| O=C1N=C(Nc2ccc(O)cc2)S/C1=C1\C(=O)Nc2ccccc21 | fulfilled |
| CCc1ccc2c(c1)/C(=C1/SC(=N)NC1=O)C(=O)N2 | not fulfilled |

Ask: Decide: IC50 of `O=C1Nc2ccccc2/C1=C/c1ccc2cc[nH]c2c1` strictly below 40 µM?
Reply: not fulfilled

These measurements were taken from ChEMBL document CHEMBL3797033.
